tested on: HOP-92 NSCLC; assay: NCI tumour cell line growth inhibition, 48 h
Assign 1 whenever TGI does not fall below 10 µM; assign 0 whenever it does.

INSERT INTO results (compound, system_tested, answer_label) VALUES
  ('CSC1=NCC2(S1)c1ccccc1N(C(=O)OC(C)(C)C)C2N1CCCCC1 (stereo unspecified)', 'HOP-92 NSCLC', 1),
  ('O=[N+]([O-])c1ccc(C(Nc2ccccc2)c2ccc3cccnc3c2O)cc1 (stereo unspecified)', 'HOP-92 NSCLC', 1),
  ('CN1C(=O)C(O)CC1c1cccc(C(F)(F)F)c1 (stereo unspecified)', 'HOP-92 NSCLC', 1),
  ('CCCCCCCCCCCCCc1nn[nH]n1', 'HOP-92 NSCLC', 1),
  ('CC1(C2CCC3(C)OC3C2)CO1 (stereo unspecified)', 'HOP-92 NSCLC', 1),
  ('O=c1cc(-c2ccccn2)[nH]c2ccc(Cl)cc12', 'HOP-92 NSCLC', 1),
  ('Cc1cc(C(O)CN(C)C)cc2c1ccc1cc(C(C)C)ccc12 (stereo unspecified)', 'HOP-92 NSCLC', 0),
  ('CC(=O)/C(=C\c1ccc(Cl)c(Cl)c1)C(=O)C(C)CN(C)C (stereo unspecified)', 'HOP-92 NSCLC', 0),
  ('NC(=O)Cc1nc2c(=O)[nH]cnc2n1C1OC(CO)C(O)C1O (stereo unspecified)', 'HOP-92 NSCLC', 1),
  ('COc1ccc(CCc2cc(OC)c(OC)c(OC)c2)cc1', 'HOP-92 NSCLC', 1),
  ('Cc1csc(NC(=NCCN2CCOCC2)Nc2nc(C)cs2)n1', 'HOP-92 NSCLC', 1),
  ('Cc1cc([N+](=O)[O-])c(C)c(Br)c1C', 'HOP-92 NSCLC', 1),
  ('CC1OC(OC2CCC3(C=O)C4CCC5(C)C(C6=CC(=O)OC6)CCC5(O)C4CCC3(O)C2)C(O)C(O)C1O (stereo unspecified)', 'HOP-92 NSCLC', 0),
  ('CC(=O)N(Cc1ccccc1)c1ccccc1I(=O)=O', 'HOP-92 NSCLC', 1),
  ('C#CCN(Cc1ccc2nc(N)[nH]c(=O)c2c1)c1ccc(C(=O)NC(CCC(=O)O)C(=O)O)cc1 (stereo unspecified)', 'HOP-92 NSCLC', 1),
  ('O=C(Cc1csc2nc(-c3ccc(Br)cc3)cn12)N/N=C/c1ccc(O)cc1', 'HOP-92 NSCLC', 1),
  ('Cc1cc(Cl)ccc1NS(=O)(=O)c1ccc(-c2cnc(C3CC3)o2)cc1', 'HOP-92 NSCLC', 1),
  ('O=C(Cc1ccccc1)NN1C(=O)/C(=C\c2ccc(O)cc2)SC1=Nc1ccccc1', 'HOP-92 NSCLC', 1),
  ('CN(C)C(=S)Oc1ccc2ccc(=O)oc2c1', 'HOP-92 NSCLC', 1),
  ('O=C(Nc1cccc(-n2cc(-c3ccncc3)c(-c3ccc(O)c(Cl)c3)n2)c1)c1cccc(C(F)(F)F)c1', 'HOP-92 NSCLC', 0),
  ('Cc1nc(-c2cc3cc(Cl)ccc3oc2=O)cc2c1c(=O)oc1ccc(Cl)cc12', 'HOP-92 NSCLC', 1);

All values here come from PubChem BioAssay (NCI).
